Tested on: Bacillus subtilis
Experiment: cleaved RNA product abundance (RNA/gDNA barcode ratio) relative to median wild-type variant (ratio to wild type); higher = more accumulation of the downstream cleavage product
Conditions: experiment (reporter, strain, medium): exp 4a: truncated aprE reporter, strain BJT201 with 2% xylose (RNase J1 expressed); cleavage site: cggR-gapA (positions -7 to +36 mutated)
measurement-type: cleaved RNA product abundance
I'd appreciate a reply containing only the number, no unit.

Exam item: Return the recorded cleaved RNA product abundance value; entry: ACAGACGAAGGAGCCGCAAAGAAGTGATTTAGGGATGAATAATCCCTCAATATAAATATCTCTCACTTATTTAAA
Marked response: 0.386
